- System: EKVX NSCLC
- assay info: NCI-60 one-dose screen, 48 h (100 = growth as untreated, 0 = no growth, -100 = all killed)
- measurement context: 10 µM unless noted
Compounds without any hit were thinned out: in the full panel of roughly 83,000, 20% have a hit.
Binary label based on growth with cut-off 90%: below gives yes (1), not below gives no (0).

Examples from the recorded data:
INSERT INTO measurements (molecule, cat) VALUES
  ('c1ccc2c[n+](Cc3ccc4ccccc4n3)ccc2c1', 'yes (1)'),
  ('CSc1nc(N)c(N)c(N)n1', 'no (0)'),
  ('CN(C)C(=N)N=C(N)N', 'no (0)'),
  ('COC(=O)c1nc(=S)[nH]c(C(=O)OC)c1C(=O)c1ccc(OC)cc1', 'no (0)'),
  ('ON=C(C1CCCCC1)C1CCCCC1', 'no (0)'),
  ('N#CC(=S)Nc1ccc(Cl)c(Cl)c1', 'yes (1)'),
  ('O=P(O)(O)OC1C(OP(=O)(O)O)C(OP(=O)(O)O)C(OP(=O)(O)O)C(OP(=O)(O)O)C1OP(=O)(O)O.[Cu+2] (centres undefined)', 'no (0)'),
  ('Cc1c(Cl)c(C)c(Cc2c(C)c(Cl)c(C)c(Cl)c2O)c(O)c1Cl', 'yes (1)');

Input: A record lists `Cc1cnc(N)s1` . Is its growth below 90%?
Output: no (0)

Input: Please determine if `CCOCCC(=O)O` is below 90% in terms of growth.
Output: no (0)

Input: State whether 90% exceeds growth recorded for `COc1ccc2oc3c(ccc[n+]3C)c(=O)c2c1` .
Output: no (0)

Input: Problem: For the molecule `CCOC(=O)c1ccc(C(=N)N)cc1` , is growth under 90%?
Output: no (0)

Input: Please indicate whether the reported growth of `CCc1ccccc1-n1[nH]c(C)c(C=N)c1=O` is strictly below 90%.
Output: no (0)

---

- Test system: HOP-92 NSCLC
- assay info: NCI-60 one-dose screen, 48 h (100 = growth as untreated, 0 = no growth, -100 = all killed)
- measurement context: 10 µM unless noted
The panel holds about 83,000 compounds, 20% with a hit somewhere; the sample as a whole holds those more often. The source made the active and inactive calls. Rule for the calls: active = growth percent below 10; inactive = the rest.
Catalogue of growth values

INSERT INTO assay_data (compound, measured_result) VALUES
  ('CCNCc1ccccc1', '113% (inactive)'),
  ('COc1ccc2nccc(Cl)c2c1', '98.7% (inactive)'),
  ('O=C1C=CC(n2cc(F)c(=O)[nH]c2=O)O1 (stereo not drawn)', '112% (inactive)');

Input: For `OCc1cccc(F)c1` , what is its reported growth?
Output: 118% (inactive)

Input: Any idea what its growth is? The compound is COCCCNC1=C(C#N)C(=O)NC(c2cccs2)S1 (stereo not drawn)
Output: 107% (inactive)

Input: Which growth value belongs to `N=c1sc2ccccc2n1CC(=O)O` ?
Output: 82.1% (inactive)

Input: Item CCOC(=O)c1ccc(N2C(=O)C(Cl)(c3ccccc3)C2c2ccco2)cc1 (stereo not drawn) has what recorded growth?
Output: 63.7% (inactive)

Input: Which growth is reported for this compound? `COC(=O)c1ccccc1Cl`
Output: 85.3% (inactive)

Input: Look at this compound and give its reported growth. `C/C=C(/C(=O)NC(N)=O)C(C)C`
Output: 94.5% (inactive)

Input: Reported growth for OC1CCCN(Cc2ccccc2)C1 (stereo not drawn) : what is it?
Output: 106% (inactive)

Input: Form field: reported growth of CC(O)CCNC(c1ccccc1)C(O)c1ccccc1 (stereo not drawn)
Output: 86% (inactive)

Input: If you can, please state the reported growth value of COc1cc(C2c3cc4c(cc3C(OC(=O)C[n+]3ccccc3)C3COC(=O)C23)OCO4)cc(OC)c1OC (stereo not drawn) .
Output: 71.5% (inactive)

Input: Which growth is reported for this compound? `CCN(C)c1ccccc1`
Output: 101% (inactive)

---

- Tested on: KM12 colon
- assay info: NCI-60 one-dose screen, 48 h (100 = growth as untreated, 0 = no growth, -100 = all killed)
- measurement context: 10 µM unless noted
- Procedure: Growth inhibition of the KM12 human tumor cell line is measured as a screen for anti-cancer activity. Cells are grown in 96 well plates and exposed to the test compound for 48 hours. Compounds are tested at a single concentration, which is 10^-5 M for most compounds. The reported endpoint is percent growth (GI% or GIPRCNT), where numbers from 0 - 100% represent growth inhibition, and numbers from -100% - 0 represent cell death. For example, a value of 40 represents 60% growth inhibition. […]
This is part of a sample that, as a whole, favours compounds with a hit. Of some 83,000 tested, about 20% had one in any assay. The source made the active and inactive calls. How the source made its calls: active means growth percent below 10; inactive means the rest.
recorded metric: growth

INSERT INTO results (molecule, recorded_metric, measured_result) VALUES
  ('OCCS', 'growth', '103% (inactive)'),
  ('CCCC(=O)OCC(COC(=O)CCC)OC(=O)CCC', 'growth', '103% (inactive)'),
  ('Nc1ccccc1SC1CC(=O)N(c2ccc(I)cc2)C1=O (stereo unspecified)', 'growth', '79.1% (inactive)'),
  ('CC(C)(C)OC(=O)c1ccc(NCc2cc(O)ccc2O)cc1', 'growth', '8.14% (active)'),
  ('COC(=O)c1nc(N)nc(C(=O)OC)c1C(=O)c1ccc(F)cc1', 'growth', '107% (inactive)'),
  ('ON=C(C1CCCCC1)C1CCCCC1', 'growth', '95.5% (inactive)'),
  ('CCC(C)NC(=O)c1ccccc1C (stereo unspecified)', 'growth', '101% (inactive)'),
  ('CCOC(C)=N', 'growth', '111% (inactive)'),
  ('N#Cc1c(N)nc2c(c(-c3ccc(Cl)cc3)nn2-c2ccccc2)c1C#N', 'growth', '103% [100 µM] (inactive)'),
  ('O=C1C=CC(n2cc(F)c(=O)[nH]c2=O)O1 (stereo unspecified)', 'growth', '51.6% (inactive)');

Input: Query (molecule): `CC(=O)C[n+]1ccccc1Sc1ccc(Cl)cc1` ; field requested: growth
Output: 79.2% (inactive)

Input: Item COCCCNC1=C(C#N)C(=O)NC(c2cccs2)S1 (stereo unspecified) has what recorded growth?
Output: 108% (inactive)

---

- Test system: COLO 205 colon
- assay info: NCI-60 one-dose screen, 48 h (100 = growth as untreated, 0 = no growth, -100 = all killed)
- measurement context: 10 µM unless noted
Compounds without any hit were thinned out: in the full panel of roughly 83,000, 20% have a hit.
recorded metric: growth (%)
Report as a plain number; the unit % is understood.

INSERT INTO results (compound, target_or_test_system, measured_result) VALUES
  ('Cc1cccc(Cl)c1N', 'COLO 205 colon', 119);

Input: Request - read-out growth | tested on COLO 205 colon | compound `COc1cc(Cl)ccc1C`
Output: 94.1

Input: Can you look up growth on COLO 205 colon for `Cc1cc(-c2ccc(N=Nc3c(C)nn(-c4ccc(S(=O)(=O)O)cc4)c3O)c(C)c2)ccc1N=Nc1ccc(O)c(C(=O)O)c1` ?
Output: 94

Input: Recorded growth for CCOC(=O)c1ccc(N2C(=O)C(Cl)(c3ccccc3)C2c2ccco2)cc1 (stereo not drawn) with COLO 205 colon, please?
Output: 96.7

Input: Test system COLO 205 colon; read-out growth; what value for `CCCCC/C(C)=N\NC(N)=S` ?
Output: 92.8

Input: What value of growth on COLO 205 colon does `C/C=C(/C(=O)NC(N)=O)C(C)C` have?
Output: 97.5

Input: Lab note: need growth for `Cc1ccc(C(=O)c2ccc(C)cc2)cc1` on COLO 205 colon, anyone have it?
Output: 99.7

Input: Which measured growth belongs to COc1cc(C2c3cc4c(cc3C(OC(=O)C[n+]3ccccc3)C3COC(=O)C23)OCO4)cc(OC)c1OC (stereo not drawn) , tested on COLO 205 colon?
Output: -56.3

Input: Please tell me: growth of CC1CCC(=O)N1c1ccc(N)cc1 (stereo not drawn) , system COLO 205 colon?
Output: 104

Input: Item O=C1c2ccccc2C(c2ccccc2)C1c1ccccc1 (stereo not drawn) with COLO 205 colon - growth?
Output: 101

Input: Lookup: growth / COLO 205 colon / `CC(C)(C)OC(=O)c1ccc(NCc2cc(O)ccc2O)cc1`
Output: 10.8

Input: Find the measured growth: item `OCCS` , target or system COLO 205 colon.
Output: 107

Input: Tell me reported growth for `N=c1sc2ccccc2n1CC(=O)O` , tested with COLO 205 colon.
Output: 106

---

- Test system: CAKI-1 renal
- assay info: NCI-60 one-dose screen, 48 h
- measurement context: 10 µM unless noted
This is part of a sample that, as a whole, favours compounds with a hit. Of some 83,000 tested, about 20% had one in any assay. The source made the active and inactive calls. The calls were made as follows: active = growth percent below 10; inactive = the rest.
Write down one outcome, taken from active, inactive

Study these solved cases before continuing.
INSERT INTO results (molecule, cat) VALUES
  ('COCCCNC1=C(C#N)C(=O)NC(c2cccs2)S1 (configuration not stated)', 'inactive'),
  ('CC(=O)c1cccc(OC(=O)c2ccccc2)c1', 'inactive'),
  ('COc1ccccc1OCC(O)CO (configuration not stated)', 'inactive');

Next up:
Input: Per the assay record, what outcome was assigned to `NNC(=O)Nc1ccccc1` ?
Output: inactive

The reported measurements were obtained from PubChem BioAssay (NCI).
